# procedure summary: in vivo
# condition: rat, po
Catalogue of compounds with associated LD50 at 168 h
parameter: LD50 at 168 h

# compound, parameter, reported value
data = [
    ("Cc1c(Cl)cccc1Nc1cscc1CC(=O)O", "LD50 at 168 h", "> 30 mg/kg"),
    ("O=C(O)c1cscc1Nc1c(Cl)cccc1Cl", "LD50 at 168 h", "120 mg/kg"),
    ("O=C(O)Cc1cscc1Nc1c(Cl)cccc1Cl", "LD50 at 168 h", "11 mg/kg"),
    ("Cc1cccc(Cl)c1Nc1ccsc1CC(=O)O", "LD50 at 168 h", "> 20 mg/kg"),
    ("COc1ccc2c(c1)c(CC(=O)O)c(C)n2C(=O)c1ccc(Cl)cc1 [Compound 2, indomethacin, reference compound]", "LD50 at 168 h", "5.5 mg/kg"),
    ("O=C(O)Cc1cscc1Nc1c(F)cccc1F", "LD50 at 168 h", "> 30 mg/kg"),
    ("Cc1cccc(Nc2cscc2CC(=O)O)c1Cl", "LD50 at 168 h", "> 20 mg/kg"),
    ("Cc1cccc(C)c1Nc1cscc1CC(=O)O", "LD50 at 168 h", "> 30 mg/kg"),
    ("Cc1cccc(Cl)c1Nc1cscc1CC(=O)O", "LD50 at 168 h", "> 20 mg/kg"),
    ("Cc1ccc(Cl)c(Nc2cscc2CC(=O)O)c1Cl", "LD50 at 168 h", "8 mg/kg"),
    ("O=C(O)Cc1sccc1Nc1c(Cl)cccc1Cl", "LD50 at 168 h", "> 20 mg/kg"),
]
